Test: Plasma pharmacokinetics in male SD rats
Type: in vivo
Conditions: male, SD, plasma; rat, po, 8.94-9.33 mg/kg; read-out: T1/2 (b) (converted)
Metric Name: half-life (h)
// units = h; emit number, no label

Any idea what its half-life is? The molecule is Cc1cc(N2CCOc3ncnc(N)c3C2=O)cc(C)c1-c1ccc2ccn(CC(F)(F)F)c(=O)c2c1
2.93

Any idea what its half-life is? The molecule is O=C(O)C[C@H]1CC[C@H](c2ccc(-c3ccc(Nc4ccc(C(F)(F)F)nc4)cn3)cc2)CC1 [Pradigastat, reference compound]
2.33

Any idea what its half-life is? The molecule is Cc1cc(N2CCOc3ncnc(N)c3C2=O)cc(C)c1-c1cn(CC(F)(F)F)nc1C
3.2
